test system: UO-31 renal; assay: NCI tumour cell line growth inhibition, 48 h

compound | TGI
O=[N+]([O-])c1ccccc1S(=O)(=O)c1cccc2c1NCCC2 | > 100 µM
c1ccc(C2(c3cc4ccccc4[nH]3)OCCO2)nc1 | > 100 µM
NN/C(=N\S(=O)(=O)c1cc(S(=O)(=O)c2ccccc2)cs1)Nc1ccc(Cl)cc1 | > 100 µM
Cc1ccc2c(-c3ccnc(Nc4cccc(C(F)(F)F)c4)n3)c(-c3ccccc3)nn2n1 | > 25 µM
OCC1NC(CO)C(O)C1O (stereo not given) | > 100 µM

###

system: NCI-H23 lung; assay: NCI tumour cell line growth inhibition, 48 h

compound | TGI
O=C(Nc1ccc(C(F)(F)F)cc1[N+](=O)[O-])C(=O)Nn1c(=S)[nH]c2ccccc2c1=O | > 100 µM
CC=C/C=C/[C@@H]1O[C@](O)([C@H](CC)C(=O)NC/C=C/C=C(\C)[C@@H](OC)[C@@H](C)[C@@H]2O[C@H](/C=C/C=C/C=C(\C)C(=O)c3c(O)cc[nH]c3=O)[C@H](O)[C@@H]2O)[C@H](O)[C@H](O)C1(C)C | > 100 µM
CCN(CC)Cc1cc(Nc2ccnc3ccc(OC)cc23)ccc1O | 26.5 µM
NC(=O)NC(=O)Nc1ccc(Br)cc1 | > 33.3 µM
CCCCN(CCCC)CC(C(=O)Nc1ccc([N+](=O)[O-])cc1[N+](=O)[O-])/C(C)=N\NC(=O)c1ccncc1 (stereo unspecified) | > 100 µM
CC(=O)Nc1ccc2cc(C#N)c(=O)[nH]c2n1 | > 100 µM

###

system: A549 NSCLC; assay: NCI tumour cell line growth inhibition, 48 h
assay.endpoint: TGI

compound | assay.endpoint | measured
O=C(NCCc1ccccn1)c1ccc2cc(C(=O)N3CC(CCl)c4ccc([N+](=O)[O-])cc43)[nH]c2c1 (stereo unspecified) | TGI | > 100 µM
NNC(=O)N/N=C(/CC1(O)C(=O)Nc2ccc(Br)cc21)c1ccccc1 (stereo unspecified) | TGI | > 100 µM
C[n+]1c(-c2ccc(/C=N\Nc3ccnc(N/N=C/c4ccc(-c5cn6ccsc6[n+]5C)cc4)n3)cc2)cn2ccsc21 | TGI | > 100 µM
CC1(C)CCC2(C(=O)O)C(O)CC3(C)C(=CCC4C5(C)CCC(OC6OCC(O)C(O)C6OC6OCC(O)C(O)C6OC6OCC(O)C(OC7OC(CO)C(O)C(O)C7O)C6O)C(C)(C)C5CCC43C)C2C1 (stereo unspecified) | TGI | > 100 µM
COc1cc(C2C=C(C)N=C3SC=C(C)N32)cc(OC)c1OC (stereo unspecified) | TGI | 6.56 µM
C=C(CN(C)C)C(=O)c1ccccc1 | TGI | 53 µM

###

test system: A498 renal; assay: NCI tumour cell line growth inhibition, 48 h; in the data active = GI50 below about 0.43 µM; inactive = the rest
Possible outcomes: active, inactive

compound | category.label
Cc1ccc2c(-c3ccnc(Nc4cccc(C(F)(F)F)c4)n3)c(-c3ccccc3)nn2n1 | inactive
Fc1ccc(C2CC(c3cccc(Nc4ccncc4)c3)=NN2c2ccccc2)cc1 (stereo unspecified) | inactive
Oc1ccc(/C=N/NC(=S)Nc2ccccc2)nc1 | inactive
CC(=O)[CH-]C(=O)c1ccccc1.CC(=O)[CH-]C(=O)c1ccccc1.CC(=O)[CH-]C(=O)c1ccccc1.[Cl-].[Hf+4] | inactive
COc1cccc(N2C(=N)/C(=C3\Nc4ccccc4S3)CC2=O)c1 | inactive
Oc1c(Cl)cc(Cl)c(Cl)c1Cc1c(O)c(Cl)cc(Cl)c1Cl | active

###

tested on: NCI-H522 lung; experiment: NCI tumour cell line growth inhibition, 48 h
Quick reference: TGI of the listed items.

compound | relation.symbol | TGI [µM]
COC(=O)c1cc(C#N)[nH]c1-c1ccc(Br)s1 | = | 19.6
N#C/C(=C\c1ccc(O)c(O)c1)C(=O)NCc1cccc(C(F)(F)F)c1 | = | 63.2
CC1=CP(=O)(OC(C)C)C=C(C)C1=C(Cl)Cl (stereo not drawn) | = | 9.03
Cn1c(=O)oc2cc(C(O)CN3CCN(Cc4ccc5c(c4)OCO5)CC3)ccc21 (stereo not drawn) | > | 100
O=C(c1ccc(Cl)c(Cl)c1)N(C(=S)OC12CC3CC(CC(C3)C1)C2)c1ccccc1 | = | 41.7
O=c1nc(N2CCCCC2)sc2[nH]c3ccccc3c12 | > | 100
Cc1cccc2c(N)c3cccc(C(=O)NCCNCCN)c3nc12 | = | 1.36
O=c1[nH]c(-c2ccccc2)nc2cc([N+](=O)[O-])c(/C(Cl)=C/c3ccccc3)cc12 | = | 81.7

###

Below is a list of entries, each paired with its recorded TGI value.
test system: NCI-H460 lung; test: NCI tumour cell line growth inhibition, 48 h
assay.endpoint: TGI

compound | measured
CC(=O)OC[C@@]1(C)[C@@H]2[C@@H]3[C@@]4(CO[C@]3(C)C(=O)[C@@]3(OC(C)=O)C[C@H](C)[C@H](OC(C)=O)[C@@H]3[C@H]4OC(C)=O)[C@H](OC(=O)c3ccccc3)C[C@@H]21 | > 100 µM
COC(=O)c1ccccc1/C=C1\Cc2ccc3c(c2C1=O)CCC3 | > 100 µM
N#Cc1c(-c2ccccc2)nc(SCC(O)CN2CCOCC2)nc1N1CCOCC1 (stereo not given) | > 100 µM
CN1CC=C(C#CC(C)(C)O)CC1 | > 37.5 µM
O=C1NC(=NCCc2ccccc2F)S/C1=C\c1ccc2ncccc2c1 | > 25 µM

###

tested on: MDA-MB-231 breast; experiment: NCI tumour cell line growth inhibition, 48 h
assay.endpoint: TGI (µM)

compound | system.tested | units.symbol | relation.symbol | measured
O=S(=O)(N=[Se](=O)(c1ccccc1)c1ccccc1)c1ccccc1 | MDA-MB-231 breast | µM | > | 100
O=Nn1c2ccccc2c2ccccc21 | MDA-MB-231 breast | µM | > | 100
COc1cc(C2C=C(C)N=C3SC=C(C)N32)cc(OC)c1OC (stereo not given) | MDA-MB-231 breast | µM | = | 9.26
COC(=O)c1cc(C#N)[nH]c1-c1ccc(Br)s1 | MDA-MB-231 breast | µM | = | 30.7
Cn1c(=O)oc2cc(C(O)CN3CCN(Cc4ccc5c(c4)OCO5)CC3)ccc21 (stereo not given) | MDA-MB-231 breast | µM | > | 100
O=C(NNC1=NS(=O)(=O)c2ccccc2N1c1ccccc1)c1cnccn1 | MDA-MB-231 breast | µM | > | 100
Cc1[nH]c(N)nc(=S)c1CCCNc1ccccc1 | MDA-MB-231 breast | µM | > | 100
Cn1ccc(S(=O)(=O)N2CCC[C@H](Nc3nccc(-c4c(-c5cccc(O)c5)nc5occn45)n3)C2)n1 | MDA-MB-231 breast | µM | > | 66.6
O=c1nc(N2CCCCC2)sc2[nH]c3ccccc3c12 | MDA-MB-231 breast | µM | > | 100
CCCCNC(=O)CC1=C(C)/C(=C/c2[nH]c(-c3ccc[nH]3)cc2OC)N=C1C | MDA-MB-231 breast | µM | = | 8.04
Oc1c(Cl)cc(Cl)c(Cl)c1Cc1c(O)c(Cl)cc(Cl)c1Cl | MDA-MB-231 breast | µM | = | 5.53
O=C(Nc1nc2ccc(OC(F)(F)F)cc2s1)c1ccc(F)cc1 | MDA-MB-231 breast | µM | = | 18.9
COC(=O)NCCc1[nH]nc2c1C(=O)C=C(Nc1ccccc1OC)C2=O | MDA-MB-231 breast | µM | = | 94.3
CCN1CCCCCCCCCC(=N/O)/C(=N\O)C1 | MDA-MB-231 breast | µM | > | 100
COc1ccc(CCn2ccc(C)n2)c(OC)c1 | MDA-MB-231 breast | µM | > | 100
C=C1[C@@H](OC(C)=O)/C=C/C2C3C(=O)[C@@](C)(OC(C)=O)[C@H]([C@H](OC(C)=O)[C@]4(O)[C@@H](C)C(=O)O[C@H]4[C@H]1Cl)[C@@]23C (stereo not given in full) | MDA-MB-231 breast | µM | > | 100
O=S(=O)(Cc1ccccc1)c1nnc(S(=O)(=O)c2ccc(Cl)cc2)s1 | MDA-MB-231 breast | µM | = | 91.7
COc1ccc(/C(=N/Nc2nc3ccccc3n2Cc2ccccc2)C(=O)O)cc1 | MDA-MB-231 breast | µM | = | 80.2
Cc1cc2c(C(C)C)c(O)c(O)c(/C=N/O)c2c(O)c1-c1c(C)cc2c(C(C)C)c(O)c(O)c(/C=N/O)c2c1O | MDA-MB-231 breast | µM | = | 20.2
C/C(=N\O)C1CC(CC(=O)O)C1(C)C (stereo not given) | MDA-MB-231 breast | µM | > | 100

###

Measured TGI of individual entries
tested on: OVCAR-5 ovarian; assay: NCI tumour cell line growth inhibition, 48 h

compound | TGI
O=C1CCC2(c3ccccc3)OCC([C@@H](O)c3ccccc3)N12 (stereo partly drawn) | > 100 µM
C/C(=N\O)C1CC(CC(=O)O)C1(C)C (stereo not drawn) | > 100 µM
NC(=S)NN=Cc1ccccc1OCc1cccc(COc2ccccc2C=NNC(N)=S)n1 | > 100 µM

Data credit: PubChem BioAssay (NCI)
